Target: Glucocorticoid receptor (Homo sapiens, UniProt P04150)
Assay: Agonist activity at glucocorticoid receptor in human A549 cells by NF-kappaB transrepression assay
Type: functional, cell-based
measured.parameter: IC50 (nM)
Reply numerically in nM, unit not repeated.

Worked cases, answers included:
# molecule, measured.parameter, observed
data = [
    ("Cc1cc(C)c(S(=O)(=O)N[C@@H](C)CNc2cc(C)cc3c2cnn3-c2ccc(NC(C)C)cc2)c(C)c1", "IC50", 2),
    ("Cc1cc(C)c(S(=O)(=O)N[C@@H](C)CNc2cc(C)cc3c2cnn3-c2cccc(N3CCCC(CO)C3)c2)c(C)c1 (stereo in doubt; 14l)", "IC50", 20),
]

Any idea what its IC50 is? The molecule is CNc1ccc(-n2ncc3c(NC[C@H](C)NS(=O)(=O)c4c(C)cc(C)cc4C)cc(C)cc32)cc1
5.01

Which measured IC50 value corresponds to Cc1cc(NC[C@H](C)NS(=O)(=O)C2CC2)c2cnn(-c3cccc(C(=O)N[C@H](C)C(N)=O)c3)c2c1 ?
3.16

Could you tell me which IC50 is on file for Cc1cc(NC[C@H](C)NS(=O)(=O)C2CC2)c2cnn(-c3cccc(C(=O)N4CCC[C@H]4C(N)=O)c3)c2c1 ?
794

Need IC50, item Cc1cc(C)c(S(=O)(=O)N[C@@H](C)CNc2cc(C)cc3c2cnn3-c2cccc(N3CCCC(CO)C3)c2)c(C)c1 (single isomer, unassigned; isomer 2)
39.8

Please look up its IC50: Cc1cc(NC[C@H](C)NS(=O)(=O)C2CC2)c2cnn(-c3cccc(C(=O)NCC(N)=O)c3)c2c1
5.01

###

Measured IC50, listed per entry for reference.
Target: Glucocorticoid receptor (Homo sapiens)
Sequence (P04150 whole entry): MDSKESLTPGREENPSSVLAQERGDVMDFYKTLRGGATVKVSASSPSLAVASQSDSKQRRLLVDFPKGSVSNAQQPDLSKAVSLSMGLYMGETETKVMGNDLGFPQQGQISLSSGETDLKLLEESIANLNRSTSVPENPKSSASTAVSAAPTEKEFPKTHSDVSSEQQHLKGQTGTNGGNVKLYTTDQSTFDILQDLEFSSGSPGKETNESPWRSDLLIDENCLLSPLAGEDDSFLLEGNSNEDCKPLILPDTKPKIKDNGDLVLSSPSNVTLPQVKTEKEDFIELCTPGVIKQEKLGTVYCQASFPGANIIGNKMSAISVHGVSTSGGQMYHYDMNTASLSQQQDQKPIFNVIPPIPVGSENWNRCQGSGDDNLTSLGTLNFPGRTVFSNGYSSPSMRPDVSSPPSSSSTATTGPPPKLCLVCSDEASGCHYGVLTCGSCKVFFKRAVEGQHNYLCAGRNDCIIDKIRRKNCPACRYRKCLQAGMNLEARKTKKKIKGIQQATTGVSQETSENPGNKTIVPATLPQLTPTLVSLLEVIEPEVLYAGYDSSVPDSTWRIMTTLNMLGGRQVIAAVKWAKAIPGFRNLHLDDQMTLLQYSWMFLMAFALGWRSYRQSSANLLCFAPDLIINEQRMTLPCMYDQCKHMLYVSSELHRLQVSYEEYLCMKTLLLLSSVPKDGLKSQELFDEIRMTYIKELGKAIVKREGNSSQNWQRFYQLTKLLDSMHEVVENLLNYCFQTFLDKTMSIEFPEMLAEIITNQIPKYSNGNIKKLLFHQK
Test: Agonist activity at glucocorticoid receptor in human A549 cells by NF-kappaB transrepression assay
Assay type: functional, cell-based
Quick reminder: number only, in nM, skip the unit.

# compound.string, unit.tag, IC50
data = [
    ("Cc1cc(C)c(S(=O)(=O)N[C@@H](C)CNc2cc(C)cc3c2cnn3-c2ccc(C#N)cc2)c(C)c1", "nM", 2),
    ("Cc1cc(C)c(S(=O)(=O)NC[C@@H](C)Nc2cc(C)cc3c2cnn3-c2ccc(F)cc2)c(C)c1", "nM", 6.31),
    ("CCN(C[C@](O)(CNc1cccc2c1cnn2-c1ccc(F)cc1)C(F)(F)F)C(=O)c1c(Cl)cccc1Cl", "nM", 0.0794),
]

Now for another entry.
Fill in: IC50 of Cc1cc(C)c(S(=O)(=O)N[C@@H](C)CNc2cc(C)cc3c2cnn3-c2cccc(F)c2)c(C)c1 is ___
7.94

###

Molecular target: Glucocorticoid receptor (Homo sapiens)
Experiment: Agonist activity at glucocorticoid receptor in human A549 cells by NF-kappaB transrepression assay
Type: functional, cell-based
Property: pIC50; scope: individual molecules
// pIC50 is dimensionless: -log10 of concentration (M)

Some molecules with known pIC50 results, for comparison:
# molecule, observed
records = [
    ("Cc1cc(C)c(S(=O)(=O)N[C@@H](C)CNc2cc(C)cc3c2cnn3-c2ccc(NCC(N)=O)cc2)c(C)c1", 8.50),
    ("Cc1cc(C)c(S(=O)(=O)N[C@@H](C)CNc2cc(C)cc3c2cnn3-c2cccc(N3CCCC(CO)C3)c2)c(C)c1 (single isomer, unassigned; isomer 1)", 7.40),
    ("Cc1cc(NC[C@H](C)NS(=O)(=O)C2CC2)c2cnn(-c3cccc(C(=O)N4CCCC(CO)C4)c3)c2c1 (some centres undefined)", 6.60),
]

Then there is this molecule:
Query for Glucocorticoid receptor (Homo sapiens): what pIC50 does the record show for COc1cccc(-n2ncc3c(NC[C@H](C)NS(=O)(=O)c4c(C)cc(C)cc4C)cc(C)cc32)c1 ?
7.30

###

Molecular target: Glucocorticoid receptor (Homo sapiens, UniProt P04150)
Test: Displacement of fluorescent-labelled Dexamethasone from glucocorticoid receptor
measured.parameter: pIC50
Note on pIC50: it is the negative log10 of concentration, concentration in mol/L.

As a guide, the following entries are already answered.
# compound.string, pIC50
rows = [
    ("Cc1cc(C)c(S(=O)(=O)N[C@@H](C)CNc2cc(C)cc3c2cnn3-c2cccc(F)c2)c(C)c1", 7.80),
    ("CCN(C[C@](O)(CNc1cccc2c1cnn2-c1ccc(F)cc1)C(F)(F)F)C(=O)c1c(Cl)cccc1Cl", 7.80),
]

// lookup pIC50 | system=Glucocorticoid receptor (Homo sapiens, UniProt P04150) | key= Cc1cc(C)c(S(=O)(=O)N[C@@H](C)CNc2cc(C)cc3c2cnn3-c2ccc(NC(C)C)cc2)c(C)c1
7.90

Param readout = pIC50; param system = Glucocorticoid receptor (Homo sapiens, UniProt P04150); param query = Cc1cc(C)c(S(=O)(=O)N[C@@H](C)CNc2cc(C)cc3c2cnn3-c2ccc(S(C)(=O)=O)cc2)c(C)c1 ; response: value
7.50

Hi! What's the reported pIC50 for Cc1cc(C)c(S(=O)(=O)N[C@@H](C)CNc2cc(C)cc3c2cnn3-c2cccc(NC3CC3)c2)c(C)c1 on Glucocorticoid receptor (Homo sapiens, UniProt P04150)?
8.10

Reported pIC50 for Glucocorticoid receptor (Homo sapiens, UniProt P04150), given Cc1cc(NC[C@H](C)NS(=O)(=O)C(C)C)c2cnn(-c3cccc(C(=O)NC(C)C)c3)c2c1 ?
7.40

###

Target: Glucocorticoid receptor (Homo sapiens, UniProt P04150)
Sequence (P04150 whole entry): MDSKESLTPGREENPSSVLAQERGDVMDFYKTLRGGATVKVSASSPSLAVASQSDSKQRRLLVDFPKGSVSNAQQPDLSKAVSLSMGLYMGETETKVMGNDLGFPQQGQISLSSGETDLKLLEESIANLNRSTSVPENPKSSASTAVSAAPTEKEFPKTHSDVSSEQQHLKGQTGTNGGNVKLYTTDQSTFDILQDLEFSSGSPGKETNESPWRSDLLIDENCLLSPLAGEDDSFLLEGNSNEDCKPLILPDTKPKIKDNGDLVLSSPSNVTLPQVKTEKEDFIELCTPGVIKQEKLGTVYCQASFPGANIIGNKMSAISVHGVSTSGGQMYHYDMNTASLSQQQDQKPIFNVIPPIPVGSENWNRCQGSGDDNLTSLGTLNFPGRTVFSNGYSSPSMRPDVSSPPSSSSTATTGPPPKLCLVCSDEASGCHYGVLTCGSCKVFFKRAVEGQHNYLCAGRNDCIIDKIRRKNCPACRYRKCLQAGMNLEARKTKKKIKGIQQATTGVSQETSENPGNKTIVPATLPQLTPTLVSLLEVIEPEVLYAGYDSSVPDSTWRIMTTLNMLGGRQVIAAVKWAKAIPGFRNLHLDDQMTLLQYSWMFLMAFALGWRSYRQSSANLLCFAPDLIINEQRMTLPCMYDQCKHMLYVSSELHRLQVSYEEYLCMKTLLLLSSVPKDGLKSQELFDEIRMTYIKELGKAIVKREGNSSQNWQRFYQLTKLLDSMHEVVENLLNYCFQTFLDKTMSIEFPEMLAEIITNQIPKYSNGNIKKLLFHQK
Experiment: Displacement of fluorescent-labelled Dexamethasone from glucocorticoid receptor
measured.parameter: pIC50
Scale for pIC50: -log10 of concentration given in mol/L; no unit attached.

# molecule, pIC50
measured = [
    ("Cc1cc(C)c(S(=O)(=O)N[C@@H](C)CNc2cc(C)cc3c2cnn3-c2ccc(N[C@@H](C)C(N)=O)cc2)c(C)c1", 7.50),
    ("Cc1cc(NC[C@H](C)NS(=O)(=O)C2CC2)c2cnn(-c3cccc(C(=O)N(C)[C@H](C)C(N)=O)c3)c2c1", 7.50),
]

Field: pIC50 (Glucocorticoid receptor (Homo sapiens, UniProt P04150)). Entry: Cc1cc(C)c(S(=O)(=O)NC[C@@H](C)Nc2cc(C)cc3c2cnn3-c2ccc(F)cc2)c(C)c1
7.90

Return pIC50 measured with Glucocorticoid receptor (Homo sapiens, UniProt P04150) given this molecule: Cc1cc(C)c(S(=O)(=O)N[C@@H](C)CNc2cc(C)cc3c2cnn3-c2ccc(NC3CC3)cc2)c(C)c1
8.10

Fill in the recorded pIC50 for this molecule, with Glucocorticoid receptor (Homo sapiens, UniProt P04150) as test system: CCCS(=O)(=O)N[C@@H](C)CNc1cc(C)cc2c1cnn2-c1cccc(C(=O)NC(C)C)c1
7.90

Find pIC50 (Glucocorticoid receptor (Homo sapiens, UniProt P04150)) for the entry Cc1cc(C)c(S(=O)(=O)N[C@@H](C)CNc2cc(C)cc3c2cnn3-c2cccc(NC(C)C)c2)c(C)c1
8.20

Give Glucocorticoid receptor (Homo sapiens, UniProt P04150) pIC50 for Cc1cc(NC[C@H](C)NS(=O)(=O)C2CC2)c2cnn(-c3cccc(C(=O)NC(C)C)c3)c2c1
7.80

Provide the documented pIC50 with Glucocorticoid receptor (Homo sapiens, UniProt P04150) as the system for Cc1cc(C)c(S(=O)(=O)N[C@@H](C)CNc2cc(C)cc3c2cnn3-c2cccc(N[C@@H](C)C(N)=O)c2)c(C)c1
8.30

Recall the recorded pIC50 for Cc1cc(C)c(S(=O)(=O)N[C@@H](C)CNc2cc(C)cc3c2cnn3-c2cccc(N3CCCC(CO)C3)c2)c(C)c1 (single isomer, unassigned; isomer 1) with Glucocorticoid receptor (Homo sapiens, UniProt P04150) and state it.
7.60

Record lookup: for Glucocorticoid receptor (Homo sapiens, UniProt P04150), what pIC50 belongs to Cc1cc(C)c(S(=O)(=O)N[C@@H](C)CNc2cc(C)cc3c2cnn3-c2ccc(C#N)cc2)c(C)c1 ?
7.80

Query for Glucocorticoid receptor (Homo sapiens, UniProt P04150): what pIC50 does the record show for Cc1cc(C)c(S(=O)(=O)N[C@@H](C)CNc2cc(C)cc3c2cnn3-c2cccc(NCC(N)=O)c2)c(C)c1 ?
7.90

Report pIC50 for Cc1cc(NC[C@H](C)NS(=O)(=O)C2CC2)c2cnn(-c3cccc(C(=O)N4CCC[C@H]4C(N)=O)c3)c2c1 tested on Glucocorticoid receptor (Homo sapiens, UniProt P04150).
6.80

# value lookup — system Glucocorticoid receptor (Homo sapiens, UniProt P04150), readout pIC50, item Cc1cc(C)c(S(=O)(=O)N[C@@H](C)CNc2cc(C)cc3c2cnn3-c2cccc(N3CCCC(CO)C3)c2)c(C)c1 (single isomer, unassigned; isomer 2)
7.80

Form: Entry = Cc1cc(NC[C@H](C)NS(C)(=O)=O)c2cnn(-c3cccc(C(=O)NC(C)C)c3)c2c1 | System = Glucocorticoid receptor (Homo sapiens, UniProt P04150) | pIC50 = ____
6.90

Recorded pIC50 for Cc1cc(NC[C@H](C)NS(=O)(=O)C2CC2)c2cnn(-c3cccc(C(=O)NCC(N)=O)c3)c2c1 with Glucocorticoid receptor (Homo sapiens, UniProt P04150), please?
8.10
